# target of assay: T1, TRCW5 antigen (CD3δε-Fc-Avi) (biotinylated (site not stated))
# T1 construct: also called recombinant CD3
# T1 sequence (chain, as listed by the source mutant limits assumed): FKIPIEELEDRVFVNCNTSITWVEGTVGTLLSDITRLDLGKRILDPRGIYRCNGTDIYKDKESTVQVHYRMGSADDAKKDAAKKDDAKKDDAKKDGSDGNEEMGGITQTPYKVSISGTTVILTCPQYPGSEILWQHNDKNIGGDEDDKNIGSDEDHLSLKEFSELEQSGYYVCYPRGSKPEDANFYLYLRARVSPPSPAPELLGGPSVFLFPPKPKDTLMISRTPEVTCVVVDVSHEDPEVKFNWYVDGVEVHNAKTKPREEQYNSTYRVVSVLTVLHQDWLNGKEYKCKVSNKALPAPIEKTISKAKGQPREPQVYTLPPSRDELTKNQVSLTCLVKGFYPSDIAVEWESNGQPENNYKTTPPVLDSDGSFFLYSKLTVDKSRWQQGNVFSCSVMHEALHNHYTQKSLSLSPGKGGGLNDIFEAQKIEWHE
# assay remarks: ELISA after heat
assay readout: % Retained 60° C.

Q: // lookup % Retained 60° C. for CD3B2078 (scFv) scFv: QVQLVQSGAEVKKPGSSVKVSCKASGYTFTRSTMHWVRQAPGQGLEWIGYINPSSAYTNYAQKFQGRVTLTADKSTSTAYMELSSLRSEDTAVYYCASPQVHYDYNGFPYWGQGTLVTVSSGGSEGKSSGSGSESKSTGGSEIVLTQSPATLSASPGERVTLSCSASSSVSYMNWYQQKPGTSPRRLIYDSSKLASGVPARFSGSGSGRDYTLTISSLEPEDFAVYYCQQWSRNPPTFGGGTKVEIK
Result: 88%

Q: Quick one: CD3B2068 (scFv) scFv: QVQLVQSGAEVKKPGSSVKVSCKASGYTFTRSTMHWVRQAPGQGLEWMGYINPSSAYTNYNQKFQGRVTLTADKSTSTAYMELSSLRSEDTAVYYCASPQVHYDYNGFPYWGQGTLVTVSSGGSEGKSSGSGSESKSTGGSEIVLTQSPATLSASPGERVTLSCSASSSVSYMNWYQQKPGQAPRRLIYDSSKLASGVPARFSGSGSGRDYTLTISSLEPEDFAVYYCQQWSRNPPTFGGGTKVEIK
Result: 88%

Q: Entry to check: CD3B2071 (scFv) scFv: QVQLVQSGAEVKKPGSSVKVSCKASGYTFTRSTMHWVRQAPGQGLEWMGYINPSSAYTNYNQKFQGRVTLTADKSTSTAYMELSSLRSEDTAVYYCASPQVHYDYNGFPYWGQGTLVTVSSGGSEGKSSGSGSESKSTGGSEIVLTQSPATLSASPGERVTLSCSASSSVSYMNWYQQKPGTAPRRLIYDSSKLASGVPARFSGSGSGRDYTLTISSLEPEDFAVYYCQQWSRNPPTFGGGTKVEIK
Result: 88%

Q: How about this binder: CD3B2076 (scFv) scFv: QVQLVQSGAEVKKPGSSVKVSCKASGYTFTRSTMHWVRQAPGQGLEWIGYINPSSAYTNYAQKFQGRVTLTADKSTSTAYMELSSLRSEDTAVYYCASPQVHYDYNGFPYWGQGTLVTVSSGGSEGKSSGSGSESKSTGGSEIVLTQSPATLSASPGERVTLSCSASSSVSYMNWYQQKPGQAPRRLIYDSSKLASGVPARFSGSGSGRDYTLTISSLEPEDFAVYYCQQWSRNPPTFGGGTKVEIK
Result: 82%

Q: Next record, please: CD3B2057 (scFv) scFv: QVQLVQSGAEVKKPGSSVKVSCKASGYTFTRSTMHWVRQAPGQGLEWIGYINPSSAYTNYNQKFQGRVTLTADKSTSTAYMELSSLRSEDTAVYYCASPQVHYDYNGFPYWGQGTLVTVSSGGSEGKSSGSGSESKSTGGSEIVLTQSPATLSASPGERVTLSCSASSSVSYMNWYQQKPGQAPRRLIYDSSKLASGVPARFSGSGSGRDYTLTISSLEPEDFAVYYCQQWSRNPPTFGGGTKVEIK
Result: 66%

Q: Input CD3B2047 (scFv) scFv: QVQLVQSGAEVKKPGSSVKVSCKASGYTFTRSTMHWVKQAPGQGLEWIGYINPSSAYTNYNQKFQGRVTLTADKSTSTAYMELSSLRSEDTAVYYCASPQVHYDYNGFPYWGQGTLVTVSSGGSEGKSSGSGSESKSTGGSEIVLTQSPATLSASPGERVTLSCSASSSVSYMNWYQQKPGQSPRRLIYDSSKLASGVPARFSGSGSGRDYTLTISSLEPEDFAVYYCQQWSRNPPTFGGGTKVEIK
Result: 98%

Q: Thanks! And CD3B2066 (scFv) scFv: QVQLVQSGAEVKKPGSSVKVSCKASGYTFTRSTMHWVRQAPGQGLEWMGYINPSSAYTNYNQKFQGRVTLTADKSTSTAYMELSSLRSEDTAVYYCASPQVHYDYNGFPYWGQGTLVTVSSGGSEGKSSGSGSESKSTGGSEIVLTQSPATLSASPGERVTLSCSASSSVSYMNWYQQKPGTSPRRWIYDSSKLASGVPARFSGSGSGRDYTLTISSLEPEDFAVYYCQQWSRNPPTFGGGTKVEIK ?
Result: 109%

Q: Subsequent entry: CD3B2039 (scFv) scFv: QVQLVQSGAEVKKPGSSVKVSCKASGYTFTRSTMHWVKQAPGQGLEWMGYINPSSAYTNYAQKFQGRVTLTADKSTSTAYMELSSLRSEDTAVYYCASPQVHYDYNGFPYWGQGTLVTVSSGGSEGKSSGSGSESKSTGGSEIVLTQSPATLSASPGERVTLSCSASSSVSYMNWYQQKPGQSPRRWIYDSSKLASGVPARFSGSGSGRDYTLTISSLEPEDFAVYYCQQWSRNPPTFGGGTKVEIK
Result: 103%

Q: One more binder: CD3B2088 (scFv) scFv: QVQLVQSGAEVKKPGSSVKVSCKASGYTFTRSTMHWVRQAPGQGLEWMGYINPSSAYTNYAQKFQGRVTLTADKSTSTAYMELSSLRSEDTAVYYCASPQVHYDYNGFPYWGQGTLVTVSSGGSEGKSSGSGSESKSTGGSEIVLTQSPATLSASPGERVTLSCSASSSVSYMNWYQQKPGQSPRRWIYDSSKLASGVPARFSGSGSGRDYTLTISSLEPEDFAVYYCQQWSRNPPTFGGGTKVEIK
Result: 114%

Q: Same thing, different binder: CD3B2030 (scFv) scFv: QVQLVQSGAEVKKPGSSVKVSCKASGYTFTRSTMHWVKQAPGQGLEWIGYINPSSAYTNYNQKFQGRVTLTADKSTSTAYMELSSLRSEDTAVYYCASPQVHYDYNGFPYWGQGTLVTVSSGGSEGKSSGSGSESKSTGGSEIVLTQSPATLSASPGERVTLSCSASSSVSYMNWYQQKPGQAPRRWIYDSSKLASGVPARFSGSGSGRDYTLTISSLEPEDFAVYYCQQWSRNPPTFGGGTKVEIK
Result: 101%

Every entry's value here was drawn from patent US20250145711A1.
